- assay text: Bile excretion in rat
- Format: ADME
- experimental context: read-out: Drug excretion
readout label: dose excreted (%)

[[record]]
mol_smiles = "Cn1cc(-c2cn3nccc3c(-c3cnn([C@]4(CC#N)C[C@@H](C#N)C4)c3)n2)cn1"
readout_label = "dose excreted"
numeric_readout = 0.9


====

- assay text: Volume of distribution at steady state in Sprague-Dawley rat at 1 mg/kg, iv
- Format: ADME, organism-based
- experimental context: in vivo, read-out: Vdss
readout label: Vd (L/kg)

[[record]]
mol_smiles = "Cn1cc(-c2cn3nccc3c(-c3cnn([C@]4(CC#N)C[C@@H](C#N)C4)c3)n2)cn1"
numeric_readout = 1.1

